- Assay system: Histone deacetylase 8 (Homo sapiens)
- Sequence (Q9BY41 whole entry): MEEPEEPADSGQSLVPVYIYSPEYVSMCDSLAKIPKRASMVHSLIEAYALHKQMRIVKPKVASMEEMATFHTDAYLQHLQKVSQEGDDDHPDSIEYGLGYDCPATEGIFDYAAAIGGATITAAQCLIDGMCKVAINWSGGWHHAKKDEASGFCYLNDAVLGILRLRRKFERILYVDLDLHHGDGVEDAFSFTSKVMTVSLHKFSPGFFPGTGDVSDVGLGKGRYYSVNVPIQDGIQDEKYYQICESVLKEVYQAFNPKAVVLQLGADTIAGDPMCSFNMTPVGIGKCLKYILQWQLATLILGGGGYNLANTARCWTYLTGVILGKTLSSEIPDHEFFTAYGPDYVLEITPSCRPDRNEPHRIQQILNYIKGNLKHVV
Result type: IC50

Problem: Item under review: COc1nc(-c2ccc(NC(=O)Nc3ccc(C(=O)NCCCCCC(=O)Nc4ccccc4N)cc3)cc2)nc(N2CCOCC2)n1 . Reported IC50?
Result: > 10 µM
